// data source = patent US20240067600A1

test system: mtPTP; experiment: Calcium retention capacity (CRC) assay on isolated mitochondria; assay type: biochemical, mice; conditions: 12.5 μM compound; Table 2; average of >3 experiments ± SEM
Simple rule here: Calcium Retention Capacity (CRC/CRC0 at 12.5 μM) less than 9 is YES, otherwise NO.

{"smiles-string": "O=C(Nc1ccc(CN2CCNCC2)cc1)c1ccc(Cl)c(OCc2ccccc2)c1", "group-label": "NO"}
{"smiles-string": "O=C(Nc1ccc(CN2CCCCC2)cc1)c1ccc(Cl)c(OCc2cccc(Cl)c2)c1", "group-label": "YES"}
{"smiles-string": "O=C(Nc1ccc(CN2CCCCC2)cc1)c1cc(F)cc(OCc2ccccc2)c1", "group-label": "NO"}
{"smiles-string": "O=C(Nc1cccc(CN2CCNCC2)c1)c1ccc(Cl)c(OCc2ccccc2)c1", "group-label": "NO"}
{"smiles-string": "CN1CCN(Cc2ccc(NC(=O)c3ccc(Cl)c(OCc4ccccc4)c3)cc2)CC1", "group-label": "NO"}
{"smiles-string": "O=C(Nc1ccc(CN2CCCCC2)cc1)c1cc(OCc2ccccc2)ccc1Cl", "group-label": "YES"}
{"smiles-string": "COc1ccc(/C=C/C(=O)Nc2cccc(Cl)c2)cc1O", "group-label": "YES"}
{"smiles-string": "O=C(Nc1ccc(CN2CCCCC2)cc1)c1ccc(Cl)c(OCc2ccc(F)cc2)c1", "group-label": "NO"}

* * *

// reported Calcium Retention Capacity (CRC/CRC0 at 12.5 μM) per item
system: mtPTP; assay: Calcium retention capacity (CRC) assay on isolated mitochondria; type: biochemical, mice; details: 12.5 μM compound; Table 2; average of >3 experiments ± SEM
measured-quantity: Calcium Retention Capacity (CRC/CRC0 at 12.5 μM)

{"smiles-string": "O=C(Nc1ccc(CN2CCCCC2)cc1)c1ccc(Cl)c(OCc2ccc(Cl)cc2)c1", "observed": 5.91}
{"smiles-string": "O=C(Nc1ccc(CN2CCCCC2)cc1)c1ccc(Cl)c(OCc2ccccc2Cl)c1", "observed": 2.37}
{"smiles-string": "O=C(Nc1ccc(CN2CCCCC2)cc1)c1ccc(F)c(OCc2ccccc2)c1", "observed": 13.3}
{"smiles-string": "O=C(Nc1ccc(CN2CCCCC2)cc1)c1ccc(Cl)c(OCc2ccccc2F)c1", "observed": 2.59}
